# Test Target: Cytochrome P450 2C9 (Homo sapiens)
# Procedure Summary: blockers of cytochrome P450 2C9 activity – biochemical, luminescence, ADME assay, primary screen (AID 777)
# Conditions Used: CYP2C9 Supersomes, luciferin-H conversion, at 5 µM
Hit rate of the full screen: of about 96,000 compounds, about 19,000 (20%) were called active.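 How the source made its calls: active means blocking of liver enzyme CYP2C9 beyond about 50% at 5 µM (limit read from the data); inactive means the rest.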 These entries were drawn from the full list.
Output constraint: value belongs to True (active), False (inactive)

• COc1ccc(CC(NC(C)=O)C(=O)NC2CCN(C(=O)Nc3ccc(C#N)cc3)CC2)cc1OC (stereo unspecified) = False
• CCNC(=O)CCc1nc(-c2ccc(C(C)(C)C)cc2)no1 = False
• Clc1cccc(-c2nc3nc4ccccc4nc3n2Cc2ccco2)c1 = True
• CCC(=O)Nc1cccc(NC(=O)c2cccnc2)c1 = False
• Cc1cc(C)c(NC(=O)CS(=O)CC(=O)Nc2cccnc2)c(C)c1 (stereo unspecified) = False

We next turn to a different compound, shown below.
(Q) Dear colleague, could you share the recorded outcome for COc1ccc(-c2cc(C(F)(F)F)nc(NCc3cccnc3)n2)cc1 when you have a moment?
(A) True

====

# Test Target: Cytochrome P450 2C9 (Homo sapiens)
# Procedure Summary: blockers of cytochrome P450 2C9 activity – biochemical, luminescence, ADME assay, primary screen (AID 777)
# Conditions Used: CYP2C9 Supersomes, luciferin-H conversion, at 5 µM
Out of some 96,000 compounds screened, about 19,000 (20%) were called active.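 How the source made its calls: active means blocking of liver enzyme CYP2C9 beyond about 50% at 5 µM (limit read from the data); inactive means the rest.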 Only a sample is shown.
Output constraint: value belongs to y = active, n = inactive

• CN(C)CC(O)COc1ccc(C(C)(C)c2ccc(OCC(O)CN(C)C)cc2)cc1 (stereo not drawn) = n
• Cc1ccc(S(=O)(=O)N2C3C=CC(C3)C2C(=O)O)cc1 (stereo not drawn) = n
• c1n[nH]c(NCc2ccc3c(c2)OCO3)n1 = n
• CO/N=C(/CS(=O)(=O)c1ccc(Br)cc1)c1ccc(OC)cc1 = y
• Cc1ccc(C(=O)NCCNS(=O)(=O)c2ccccc2)cc1 = y
• COc1ccc(C(=O)n2nc(-c3ccc(C)cc3)nc2N)cc1OC = n

(Q) Dear colleague, could you share the recorded outcome for Cc1cccc(NC(=O)c2ccc(OCC(=O)NCc3ccccc3)cc2)c1C when you have a moment?
(A) n

(Q) Dear colleague, could you share the recorded outcome for CCC(C)Sc1nnc(-c2c[nH]c3ccccc23)n1CCOC (stereo not drawn) when you have a moment?
(A) n

(Q) Dear colleague, could you share the recorded outcome for CC(C)c1ccc(OCC(O)Cn2cnc3ccccc32)cc1 (stereo not drawn) when you have a moment?
(A) n

(Q) Dear colleague, could you share the recorded outcome for CCOC(=O)C1=C(CN2CCc3ccccc32)NC(=O)NC1c1cccc([N+](=O)[O-])c1 (stereo not drawn) when you have a moment?
(A) n

(Q) Dear colleague, could you share the recorded outcome for N#Cc1c(N)nc2c3c(sc(=N)c2c1N)NC(=O)CC3c1ccccc1Cl (stereo not drawn) when you have a moment?
(A) n

(Q) Dear colleague, could you share the recorded outcome for Nc1ccc(Oc2ccc(Cl)cc2)cc1 when you have a moment?
(A) n

(Q) Dear colleague, could you share the recorded outcome for O=C(c1ccc(Cl)c(Cl)c1)N1CCCC1 when you have a moment?
(A) n

(Q) Dear colleague, could you share the recorded outcome for COc1ccc(CCn2c(=N)c(C(=O)NCc3ccco3)cc3c(=O)n4cccc(C)c4nc32)cc1 when you have a moment?
(A) n

(Q) Dear colleague, could you share the recorded outcome for COc1cccc(OCc2cc(/C=N/NC(=O)c3nc(Cl)c(Cl)c(N)c3Cl)ccc2OC)c1 when you have a moment?
(A) y

(Q) Dear colleague, could you share the recorded outcome for Cc1ccc(-c2cc(C(=O)N/N=C/C=C/c3ccco3)c3ccccc3n2)cc1C when you have a moment?
(A) n

(Q) Dear colleague, could you share the recorded outcome for CCOc1ccc(CCNC(=O)C2CCN(c3ccc(N4CCOCC4)nn3)CC2)cc1OCC when you have a moment?
(A) n

(Q) Dear colleague, could you share the recorded outcome for c1cncc(-c2nnc3n2C2(CCCCC2)Cc2ccccc2-3)c1 when you have a moment?
(A) n

(Q) Dear colleague, could you share the recorded outcome for N#Cc1nc(Cc2cccc3ccccc23)oc1NCc1ccc2c(c1)OCO2 when you have a moment?
(A) y

(Q) Dear colleague, could you share the recorded outcome for C=C(C)Cn1c(SCC(=O)NCc2ccco2)nc2sc3c(c2c1=O)CCC3 when you have a moment?
(A) n
